selectivity ratio listing for selected molecules.
- PROTOCOL_NOTES: Selectivity index, ratio of CC50 for human CEM cells to EC50 for HIV2 ROD
- Format: toxicity, cell-based, CCRF-CEM
- DETAILS: read-out: Ratio CC50/EC50
Could you keep your reply to the number by itself?

{"SMILES_RECORD": "COc1nc(N)nc2c1ncn2C/C=C/CP(=O)(OCOC(=O)C(C)(C)C)OCOC(=O)C(C)(C)C", "selectivity ratio": 28.5}

Let me know recorded selectivity ratio for CC(C)(C)C(=O)OCOP(=O)(C/C=C/Cn1cnc2c(N)nc(N)nc21)OCOC(=O)C(C)(C)C , thanks.
7.3
